Potency by entry:
- Species: Rattus norvegicus
- assay explanation: Antiallergic potency against IgE-mediated passive cutaneous anaphylaxis (PCA) in rats
- Assay type: functional
readout kind: Potency

> print(dat)
                              record.smiles  readout.kind  measured.number
1  COC(=O)C(/C=N/c1ccnc(-c2cccnc2)n1)=C(\O)OC       Potency              2.9
2       CC(C)(CO)NC(=O)Nc1ccnc(-c2ccncc2)n1       Potency                1
3           CC(C)NC(=O)Nc1ccnc(-c2ccncc2)n1       Potency              2.4
4           CC(C)NC(=O)Nc1ccnc(-c2cccnc2)n1       Potency              1.6
5  COC(=O)C(/C=N/c1ccnc(-c2ccncc2)n1)=C(\O)OC       Potency              5.8
6              CCNC(=O)Nc1ccnc(-c2cccnc2)n1       Potency              4.8

* * *

- Species: Rattus norvegicus
- assay explanation: Antiallergic potency against IgE-mediated passive cutaneous anaphylaxis (PCA) in rats
- Type: functional
In this section, each of the compounds is paired with its reported Potency.
readout kind: Potency

> print(dat)
                              record.smiles  readout.kind  measured.number
1            CCCCNC(=O)Nc1ccnc(-c2ccncc2)n1       Potency              2.4
2              CCNC(=O)Nc1ccnc(-c2ccncc2)n1       Potency                7
3  CC(C)NC(=O)Nc1ccnc(-c2cc[n+]([O-])cc2)n1.CS(=O)(=O)O.CS(=O)(=O)O       Potency              1.8
4  CCOC(=O)C(/C=N/c1ccnc(-c2cccnc2)n1)=C(\O)OCC       Potency              0.8
5               CNC(=O)Nc1ccnc(-c2ccncc2)n1       Potency              3.8
6        CC(C)(C)NC(=O)Nc1ccnc(-c2ccncc2)n1       Potency              3.9
7  CCOC(=O)C(/C=N/c1ccnc(-c2ccncc2)n1)=C(\O)OCC       Potency              2.4
